Molecular target: MAPK15 (human)
Experiment: KINOMEscan competition binding
Details: compound 10.0 µM
Hi there, I'd appreciate the recorded kinase still bound, per cent of control for every entry that follows.
Don't forget the unit after the number, please.

Completed entries (count: 5):
INSERT INTO results (item_smiles, readout_label, readout_value) VALUES
  ('O=C(O)c1ccc(Nc2ncc3c(n2)-c2ccc(Cl)cc2C(c2c(F)cccc2F)=NC3)cc1', 'kinase still bound, per cent of control', '90%'),
  ('Cc1ccc(NC(=O)c2cccc(C(C)(C)C#N)c2)cc1Nc1ccc2ncn(C)c(=O)c2c1', 'kinase still bound, per cent of control', '100%'),
  ('Cc1ccc2nc(NCCN)c3ncc(C)n3c2c1', 'kinase still bound, per cent of control', '19%'),
  ('COc1cc(N2CCN(C)CC2)ccc1Nc1nc(N)c(C(=O)c2c(Cl)cccc2Cl)s1', 'kinase still bound, per cent of control', '84%'),
  ('O=C(NOC[C@H](O)CO)c1ccc(F)c(F)c1Nc1ccc(I)cc1F', 'kinase still bound, per cent of control', '100%');

Each compound below has a reported value. Please supply its kinase still bound, per cent of control.
1. O=C1Nc2ccc(I)cc2/C1=C/c1cc(Br)c(O)c(Br)c1
2. CN(C)C/C=C/C(=O)Nc1cccc(Nc2ncc3c(n2)N(C)c2ccccc2C(=O)N3C)c1

["61%", "100%"]

Each compound below has a reported value. Please supply its kinase still bound, per cent of control.
1. N#Cc1c(NC(=O)c2cccc3ccccc23)sc2c1CCCC2
2. C[C@@H](Oc1cc(-n2cnc3ccc(CN4CCN(C)CC4)cc32)sc1C(N)=O)c1ccccc1C(F)(F)F
3. Cc1cc([C@@H](C)Nc2ccccc2C(=O)O)c2nc(N3CCOCC3)cc(=O)n2c1

["64%", "52%", "100%"]
